system: MOLT-4 cells; assay: MOLT-4 Cell Proliferation Assay (CellTiter-Glo Luminescent Cell Viability Assay); type: cell-based; conditions: Homo sapiens, 72 h incubation, read-out: MOLT-4 (nM) CTG IC50
quantity-measured: IC50

Inquiry: Field request: IC50 | item: CC1(C)CCC(c2ccc(Cl)cc2)=C(CN2CCN(c3ccc(C(=O)NS(=O)(=O)c4ccc(N[C@H](CCN5CCOCC5)CSc5ccccc5)c(S(=O)(=O)C(F)(F)F)c4)cc3)CC2)C1 [ABT-263, reference compound]
Reply text: 100 to 200 nM

Inquiry: Consider the compound CC1(C)CCC(CN2CCN(c3ccc(C(=O)NS(=O)(=O)c4ccc(N[C@H](CCN5CCN(CCOCCOCCOCCNc6cccc7c6C(=O)N(C6CCC(=O)NC6=O)C7=O)CC5)CSc5ccccc5)c(S(=O)(=O)C(F)(F)F)c4)cc3)CC2)=C(C23CC(C)(C2)C3)C1 (some centres unmarked) [Example 10] and give its measured IC50.
Reply text: ≤ 100 nM

Inquiry: # input compound: CC1(C)CCC(CN2CCN(c3ccc(C(=O)NS(=O)(=O)c4ccc(N[C@H](CCN5CCN(CCOCCNc6cccc7c6C(=O)N(C6CCC(=O)NC6=O)C7=O)CC5)CSc5ccccc5)c(S(=O)(=O)C(F)(F)F)c4)cc3)CC2)=C(C23CC(C(F)F)(C2)C3)C1 (some centres unmarked) [Example 2] ; wanted: its IC50
Reply text: ≤ 100 nM

Inquiry: Entry under review: CC1(C)CCC(CN2CCN(c3ccc(C(=O)NS(=O)(=O)c4ccc(N[C@H](CCN5CCN(CCOCCOCCOCCNc6cccc7c6C(=O)N(C6CCC(=O)NC6=O)C7=O)CC5)CSc5ccccc5)c(S(=O)(=O)C(F)(F)F)c4)cc3)CC2)=C(C23CC(C(F)F)(C2)C3)C1 (some centres unmarked) [Example 4] . Reported IC50?
Reply text: ≤ 100 nM

Inquiry: Can you share its IC50? I mean this compound: CC1(C)CCC(CN2CCN(c3ccc(C(=O)NS(=O)(=O)c4ccc(N[C@H](CCN5CCN(CCOCCNc6cccc7c6C(=O)N(C6CCC(=O)NC6=O)C7=O)CC5)CSc5ccccc5)c(S(=O)(=O)C(F)(F)F)c4)cc3)CC2)=C(C23CC(C)(C2)C3)C1 (some centres unmarked) [Example 9]
Reply text: ≤ 100 nM

Inquiry: So what does the record say about IC50 for CC1(C)CCC(CN2CCN(c3ccc(C(=O)NS(=O)(=O)c4ccc(N[C@H](CCN5CCN(CCOCCNc6ccc7c(c6)C(=O)N(C6CCC(=O)NC6=O)C7=O)CC5)CSc5ccccc5)c(S(=O)(=O)C(F)(F)F)c4)cc3)CC2)=C(C23CC(C(F)F)(C2)C3)C1 (some centres unmarked) [Example 6] ?
Reply text: ≤ 100 nM

Inquiry: # get_value(readout='IC50', item= CC1(C)CCC(CN2CCN(c3ccc(C(=O)NS(=O)(=O)c4ccc(N[C@H](CCN5CCC(C(=O)NCCOCCOCCNc6cccc7c6C(=O)N(C6CCC(=O)NC6=O)C7=O)CC5)CSc5ccccc5)c(S(=O)(=O)C(F)(F)F)c4)cc3)CC2)=C(C23CC(C(F)F)(C2)C3)C1 (some centres unmarked) [Example 5] )
Reply text: 100 to 200 nM

Inquiry: Requested read-out: IC50. Entry: CC1(C)CCC(CN2CCN(c3ccc(C(=O)NS(=O)(=O)c4ccc(N[C@H](CCN5CCN(C(=O)NCCOCCOCCNc6cccc7c6C(=O)N(C6CCC(=O)NC6=O)C7=O)CC5)CSc5ccccc5)c(S(=O)(=O)C(F)(F)F)c4)cc3)CC2)=C(C23CC(C(F)F)(C2)C3)C1 (some centres unmarked) [Example 1]
Reply text: ≥ 200 nM
